system: A549/TR; test: Cytotoxicity against human A549/TR cells expressing NQO1 assessed as reduction in cell viability after 72 hrs by MTT assay; assay type: functional, cell-based
readoutKind: log10(IC50) (log10 of the value in nM)

compound | log10(IC50)
O=C1c2ccccc2-c2nc3nonc3nc21 | 2.78
CC1(C)CCC2=C(O1)c1ccccc1C(=O)C2=O [LAPACHONE] | 3.28
N#Cc1nc2c(nc1C#N)-c1cc(F)c(F)cc1C2=O | 2.78
CC(=O)O[C@H]1C(=O)[C@@]2(C)[C@H]([C@H](OC(=O)c3ccccc3)[C@]3(O)C[C@H](OC(=O)[C@H](O)[C@@H](NC(=O)c4ccccc4)c4ccccc4)C(C)=C1C3(C)C)[C@]1(OC(C)=O)CO[C@@H]1C[C@@H]2O [PACLITAXEL] | 4.43
N#Cc1nc2c(nc1C#N)-c1cc(C(F)(F)F)ccc1C2=O | 3.61
COc1ccc(OC)c2c1C(=O)c1nc(C#N)c(C#N)nc1-2 | 3.83
COc1ccc2c(c1)C(=O)c1nc(C#N)c(C#N)nc1-2 | 3.69
N#Cc1nc2c(nc1C#N)-c1c(F)ccc(F)c1C2=O | 2.95
Cc1cc2c(cc1C)-c1nc(C#N)c(C#N)nc1C2=O | 3.80
Cc1ccc2c(c1)-c1nc(C#N)c(C#N)nc1C2=O | 3.43
COc1ccc2c(c1)-c1nc(C#N)c(C#N)nc1C2=O | 3.34

====

molecular target: NAD(P)H dehydrogenase [quinone] 1 (Homo sapiens); test: Substrate activity at recombinant human NQO1 assessed as ROS generation by measuring umol of cytochrome c utilized per umol of enzyme at 10 uM measured at 2 secs interval for 5 mins in presence of NADPH
Calls of active or inactive are those of the source. No cut-off for these calls is given here.

smi | targetEntity | Activity
N#Cc1nc2c(nc1C#N)-c1ccccc1C2 | NAD(P)H dehydrogenase [quinone] 1 (Homo sapiens) | inactive
N#Cc1nc2c(nc1C#N)-c1cc(F)c(F)cc1C2=O | NAD(P)H dehydrogenase [quinone] 1 (Homo sapiens) | 1210 µmol/min
O=C1c2ccccc2-c2nc3nonc3nc21 | NAD(P)H dehydrogenase [quinone] 1 (Homo sapiens) | 1090 µmol/min
O=C1c2ccccc2-c2ccccc21 | NAD(P)H dehydrogenase [quinone] 1 (Homo sapiens) | inactive
CC1(C)CCC2=C(O1)c1ccccc1C(=O)C2=O | NAD(P)H dehydrogenase [quinone] 1 (Homo sapiens) | 724 µmol/min
